Kindly supply the reported Emax values for the records listed here.
- Tested on: LPA-induced MCP-1 in NRK-49F cells
- MEASUREMENT_DESCRIPTION: LPA-induced MCP-1 AlphaLISA assay
- Format: cell-based
- RECORDED_CONDITIONS: Rattus norvegicus, final LPA 10 μM, 7 hours, read-out: Maximum Inhibition
Give just the numeric value; % need not be written.

Qu. # lookup: Emax of `COc1cc(OC)cc(C(=O)N(CCCCC(=O)O)CCCc2cccc(Cl)c2)c1`
Ans. 84

Qu. Please give the result for COc1cc(C(=O)N(CCCc2ccccc2)CCCC(Cc2ccccc2)C(=O)O)cc(OC)c1C (stereo not drawn) too.
Ans. 77

Qu. And `COc1ccc(C(=O)N(CCCCC(=O)O)CCCc2ccccc2)cc1` ?
Ans. 31

Qu. How about this compound: `COc1cc(C(=O)N(CCCc2ccccc2)CCOCP(=O)(O)O)cc(OC)c1C`
Ans. 98

Qu. Try the compound `COc1cc(C(=O)N(CCCc2c(F)cccc2F)CCOCC(=O)O)cc(OC)c1C`
Ans. 78

Qu. Check `COc1ccc(C2(C(=O)N(CCCc3ccccc3)CCOCC(=O)O)CC2)cc1` too.
Ans. 62

Qu. What would you report for `COc1cc(C(=O)N(CCCCC(=O)O)CCCc2cccc(F)c2)cc(OC)c1C` ?
Ans. 84

Qu. Consider next the compound `COc1cc(C(=O)N(CCCc2cccc(F)c2)CCSCC(=O)O)cc(OC)c1C` in the same way.
Ans. 91

Qu. What do you have for `COc1cc(OC)c(Cl)c(C(=O)N(CCCCC(=O)O)CCCc2ccccc2)c1` ?
Ans. 80

Qu. What about this compound? COc1cc(OC)cc(C(=O)N(CCCc2ccccc2)CCCC(C)C(=O)O)c1 (stereo not drawn)
Ans. 66

Qu. Also CCCCC(C)(CCCN(CCCc1ccccc1)C(=O)c1cc(OC)c(C)c(OC)c1)C(=O)O (stereo not drawn) ?
Ans. 94

Qu. Then `COc1cc(C(=O)N(CCCCC(=O)O)CCCc2ccccc2)cc(OC)c1C` ?
Ans. 91

Qu. Next compound: COc1cc(C(=O)N(CCCc2ccccc2)CCCC(C)(O)C(=O)O)cc(OC)c1C (stereo not drawn)
Ans. 81

Qu. How about this compound: `COc1cc(C(=O)N(CCCCC(=O)O)CCCc2ccccc2F)cc(OC)c1C`
Ans. 89

Qu. Input `COc1cc(C(=O)N(CCCCC(=O)NS(=O)(=O)c2ccccc2)CCCc2ccccc2)cc(OC)c1C`
Ans. 96

---

So I've got a bunch of compounds here, and I need their pIC50 values.
- TESTED_TARGET: LPAR1 (Homo sapiens)
- Construct: host or cells: U2OS
- MEASUREMENT_DESCRIPTION: LPAR1 FLIPR Assay
- Type: cell-based
- RECORDED_CONDITIONS: U2OS cells stably expressing LPAR1; LPA (EC80); Calcium 6 FLIPR dye
Kindly note that pIC50 refers to -log10 of the concentration in mol/L and answer with the value alone.

Qu. I have this compound here, COc1cc(OC(F)(F)F)cc(C(=O)N(CCCCC(=O)O)CCCc2ccccc2)c1 [Example 29] , and I need its recorded pIC50.
Ans. 6.51

Qu. Input COc1cc(C(=O)N(CCCCC(=O)O)[C@H](C)CCc2ccccc2)cc(OC)c1C [Example 153]
Ans. 6.90

Qu. Next record, please: COc1cc(C(=O)N(CCCc2ccccc2)CCSCC2(C(=O)O)CC2)cc(OC)c1C [Example 61]
Ans. 7.70

---

- TESTED_TARGET: LPAR1 (Homo sapiens, UniProt Q92633)
- Construct: host or cells: U2OS
- Sequence (Q92633 whole entry): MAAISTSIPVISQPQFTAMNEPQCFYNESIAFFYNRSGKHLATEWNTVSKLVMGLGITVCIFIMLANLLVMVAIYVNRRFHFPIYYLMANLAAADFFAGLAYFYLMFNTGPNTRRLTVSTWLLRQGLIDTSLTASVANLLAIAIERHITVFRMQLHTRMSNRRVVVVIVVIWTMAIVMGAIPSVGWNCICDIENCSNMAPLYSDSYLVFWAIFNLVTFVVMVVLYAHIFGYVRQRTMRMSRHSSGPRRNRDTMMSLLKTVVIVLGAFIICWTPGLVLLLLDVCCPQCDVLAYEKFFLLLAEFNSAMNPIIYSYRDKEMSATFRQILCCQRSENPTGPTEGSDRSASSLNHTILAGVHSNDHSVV
- MEASUREMENT_DESCRIPTION: LPAR1 Arrestin Assay (arrestin reporter assay)
- Format: cell-based
- RECORDED_CONDITIONS: U2OS cells stably expressing the LPAR1 receptor; 200 nM 18:1 LPA (EC80)
- Protocol: One day prior to the experiment, frozen U2OS cells stably expressing the LPAR1 receptor (Life Technologies, Grand Island, N.Y., #K1519A) were thawed, centrifuged at 1,000 rpm for 5 minutes to remove DMSO, and resuspended in FreeStyle™ media (Gibco, Grand Island, N.Y.). […] After the 2 hour dye-load, fluorescence was measured on an EnVision® Multilabel Plate Reader (Perkin Elmer, Waltham, Mass.) with an excitation filter at 409/20 nm and emission filters at 460/40 nm and 530/30 nm. […]
MEASURED_ENDPOINT: pIC50
Keep in mind that pIC50 stands for -log10 of concentration in molar terms.

Qu. Could you share which pIC50 value was measured for `COc1cc(C(=O)N(CCCCC(=O)O)CCCc2ccc(F)cc2)cc(OC)c1C` ?
Ans. 6.41

Qu. Another compound: `COc1cc(OC)cc(C(=O)N(CCCCC(=O)O)CCCc2cccc(Cl)c2)c1`
Ans. 6.53

Qu. Also COc1cc(C(=O)N(CCCc2ccc(C)o2)CCCC(C)(O)C(=O)O)cc(OC)c1C (stereo not shown) , if possible.
Ans. 6.00

Qu. Try COc1cc(C(=O)N(CCCc2ccccc2)CCCC(O)C(=O)O)cc(OC)c1C (stereo not shown) next.
Ans. 6.18

Qu. Item: `COc1cc(C(=O)N(CCCc2ccccc2F)CCSCC(=O)O)cc(OC)c1C`
Ans. 6.55

Qu. Then what about the compound COc1cc(C(=O)N(CCCc2ccccc2)CCC[C@@H](C)C(=O)O)cc(OC)c1C (single isomer, unassigned) ?
Ans. 8.30

Qu. Try this compound too: `COc1cc(C(=O)N(CCCCC(=O)O)CCCc2ccccc2)cc(OC)c1F`
Ans. 5.49

Qu. // query: `COc1cc(C(=O)N(CCCCC(=O)O)CCCc2cccc(Cl)c2)cc(OC)c1C`
Ans. 7.59

Qu. Note, next up: `COc1cc(C(=O)N(CCCc2ccccc2)CCSCC(=O)O)cc(OC)c1C`
Ans. 7.16

Qu. // same read-out, input: `COc1cc(C(=O)N(CCCc2ccccc2)CCCC(C)(C)C(=O)O)cc(OC)c1C`
Ans. 8.40

Qu. Consider next the compound `COc1cc(C(=O)N(CCCCC(=O)O)CCCc2ccccc2)cc(OC)c1Br` in the same way.
Ans. 7.37

Qu. Please do the same for `COc1cc(C(=O)N(CCCc2ccccc2)CCOC(=O)NS(C)(=O)=O)cc(OC)c1C` as well.
Ans. 5.81

Qu. Entry to check: `COc1cc(C(=O)N(CCCCC(=O)O)CCCc2ccccc2)cc(OC)c1C(F)(F)F`
Ans. 6.64

Qu. # iterate: `COc1cc(C(=O)N(CCCCC(=O)O)CCCc2ccc(C)o2)cc(OC)c1C1CC1`
Ans. 5.81

Qu. Queued: `COc1ccc(C2(C(=O)N(CCCCC(=O)O)CCCc3ccccc3)CC2)cc1`
Ans. 6.16

Qu. Now the same for `COc1cc(C(=O)N(CCCc2ccc(F)cc2)CCOCC(=O)O)cc(OC)c1C`
Ans. 6.33

Qu. Lookup `COc1cc(C(=O)N(CCCCC(=O)O)CCCc2ccccc2F)cc(OC)c1C`
Ans. 7.12

Qu. Continue with `COc1cc(C(=O)N(CCCc2ccccc2F)CCOCC(=O)O)cc(OC)c1C`
Ans. 6.15

Qu. And then COc1cc(C(=O)N(CCCc2ccccc2)CCSC(C)CC(=O)O)cc(OC)c1C (stereo not shown) , what is it?
Ans. 7.41

---

- System: LPA-induced MCP-1 in NRK-49F cells
- MEASUREMENT_DESCRIPTION: LPA-induced MCP-1 AlphaLISA assay
- Assay type: cell-based
- RECORDED_CONDITIONS: Rattus norvegicus, final LPA 10 μM, 7 hours, read-out: Maximum Inhibition
- Protocol: Two days prior to the experiment, NRK-49F cells were plated at 8,000 cells/well in 100 μL of growth medium [DMEM (Life Technologies #11995) with 5% dFBS (Life Technologies #30067-334), 100 units/mL penicillin/streptomycin (Life Technologies #15140122)] in 96-well clear flat bottom polystyrene TC-treated microplate (Corning® #3599) and incubated in humidified 10% CO2 at 37° C. […] The plate was read using the default Envision™ Alpha protocol (PerkinElmer). […]
Mark Yes only for Emax values smaller than 70%; exact matches and larger values are No.

Qu. Consider `COc1cc(C(=O)N(CCCC(=O)O)CCCc2ccccc2)cc(OC)c1C` . Does its Emax lie strictly below 70%?
Ans. Yes

Qu. Cool, now `COc1cc(C(=O)N(CCCc2ccccc2)CCCC(C)(C)C(=O)O)cc(OC)c1C`
Ans. No

Qu. Then this molecule: `COc1cc(C(=O)N(CCCCC(=O)NS(=O)(=O)C(F)(F)F)CCCc2ccccc2)cc(OC)c1C`
Ans. Yes

Qu. Subsequent entry: `COc1cc(C(=O)N(CCCc2ccccc2)CC(=O)NC2(C(=O)O)CC2)cc(OC)c1C`
Ans. No

Qu. Okay, and `COc1cc(C(=O)N(CCCCC(=O)NS(=O)(=O)c2ccccn2)CCCc2ccccc2)cc(OC)c1C` ?
Ans. No

Qu. Try `COc1ccc(C2(C(=O)N(CCCCC(=O)O)CCCc3ccccc3)CC2)c(F)c1` next.
Ans. Yes

Qu. Similarly, COc1cc(C(=O)N(CCCc2ccccc2)CCC[C@H](C)C(=O)O)cc(OC)c1C (single isomer, unassigned) ?
Ans. No
